# target: von Willebrand factor full length (Homo sapiens, UniProt P04275 SEQ:764-2813)
# assay-summary: filter; 46% bound at 100 nM vWF
# condition: tags: Calbiochem 681300; label: 5'-32P
recorded-endpoint: Kd (nM)
Only the number, expressed in nM, is required.

# return recorded Kd for input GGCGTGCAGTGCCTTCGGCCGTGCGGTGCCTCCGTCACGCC (ssDNA, single PS between G21 and T22, 3'-idT) [ARC1759]
0.7
